In this section, each of the compounds is paired with its reported inhibition at 50 µM.
- Tested on: IL-8
- procedure_details: Inhibition of IL-8 production by stimulated human peripheral blood leukocytes in vitro
- Type: cell-based
- condition: Homo sapiens, Leukocyte, 50 μM; zymosan-stimulated PBL; read-out: Percentage of inhibition of IL-8 production

compound_smiles	inhibition at 50 µM
CC[C@H]1OC(=O)[C@H](C)[C@@H](O[C@H]2C[C@@](C)(OC)[C@@H](OC(=O)CCNC(C)C)[C@H](C)O2)[C@H](C)[C@@H](O[C@@H]2O[C@H](C)C[C@H](N(C)C)[C@H]2O)[C@](C)(OC)C[C@@H](C)C(=O)N[C@H](C)[C@@H](O)[C@]1(C)O	43%
CC[C@H]1OC(=O)[C@H](C)[C@@H](O[C@H]2C[C@@](C)(OC)[C@@H](OC(=O)CCN(C)C)[C@H](C)O2)[C@H](C)[C@@H](O[C@@H]2O[C@H](C)C[C@H](N(C)C)[C@H]2O)[C@](C)(OC)C[C@@H](C)C(=O)N[C@H](C)[C@@H](O)[C@]1(C)O	9%
